Values from ChEMBL document CHEMBL1145737

A short record of pIC50 observed with Neuraminidase (Influenza A virus (A/Puerto Rico/8/1934(H1N1)), UniProt P03468) follows.
Sequence (P03468 whole entry): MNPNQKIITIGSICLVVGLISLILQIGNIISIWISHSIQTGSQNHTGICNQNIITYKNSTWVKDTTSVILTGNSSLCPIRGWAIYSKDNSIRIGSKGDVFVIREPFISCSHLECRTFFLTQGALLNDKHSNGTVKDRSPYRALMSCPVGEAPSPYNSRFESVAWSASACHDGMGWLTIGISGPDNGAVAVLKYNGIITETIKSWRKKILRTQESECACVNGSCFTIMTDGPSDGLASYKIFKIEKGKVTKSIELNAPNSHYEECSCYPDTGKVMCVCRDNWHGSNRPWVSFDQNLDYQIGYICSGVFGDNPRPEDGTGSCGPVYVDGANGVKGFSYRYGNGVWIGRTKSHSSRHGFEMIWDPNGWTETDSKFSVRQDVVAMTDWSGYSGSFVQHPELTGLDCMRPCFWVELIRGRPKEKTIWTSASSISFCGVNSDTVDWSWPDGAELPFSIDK
One number for each entry, as −log10 of the molar value.

CC(=O)N[C@H]1[C@H]([C@H]2CCCCO2)OC(C(=O)O)=C[C@@H]1NC(=N)N | 6.13
CC(=O)N[C@H]1[C@H]([C@@H]2OCC(F)(F)[C@@H](O)[C@H]2O)OC(C(=O)O)=C[C@@H]1NC(=N)N | 7.57
CC(=O)N[C@H]1[C@H]([C@@H]2OCCC[C@@H](O)[C@H]2O)OC(C(=O)O)=C[C@@H]1NC(=N)N | 7.48

Consider now this further compound.
According to the records, this compound "CC(=O)N[C@H]1[C@H]([C@@H]2OC[C@@H](O)[C@H]2O)OC(C(=O)O)=C[C@@H]1NC(=N)N" displays pIC50 of 7.75
